B1: FAM189A2 (parent)
chain: NLAGFILGCQGAQFVSSVPRCDLV

Variants of: B1
Method summary: protein stability index of a GFP-peptide fusion (GPS, HEK-293T) (PSI 1-6); higher = more stable;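 further: lentivirally expressed fusions sorted by FACS into six bins by GFP to DsRed ratio, PSI derived from sequencing read proportions per bin multiplied by bin number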
Condition set: c terminus: a fixed tail appended
param class (str): category from protein stability index; see ranges group A: < 2; group B: ≥ 2 and < 3; group C: ≥ 3

Problem: Just checking, what class would you give NLSGFILGCQGAQFVSSVPRCDLV [A3S] here?
Result: group A

Problem: Just checking, what class would you give NLAGFILGCQGAQFVSSVPRSDLV [C21S] here?
Result: group A

Problem: Just checking, what class would you give NLAGFILTCQGAQFVSSVPRCDLV [G8T] here?
Result: group B

Problem: Just checking, what class would you give NLAGFICGCQGAQFVSSVPRCDLV [L7C] here?
Result: group B

Problem: Just checking, what class would you give NLAGFILGCTGAQFVSSVPRCDLV [Q10T] here?
Result: group C

Problem: Just checking, what class would you give NLAGFILYCQGAQFVSSVPRCDLV [G8Y] here?
Result: group C

Problem: Just checking, what class would you give NLAGFILGCQGAQFVSSGPRCDLV [V18G] here?
Result: group A

Problem: Just checking, what class would you give NLAGFILGCQGAQFVSSVPRCDGV [L23G] here?
Result: group A

Problem: Just checking, what class would you give NLAGFIFGCQGAQFVSSVPRCDLV [L7F] here?
Result: group B

Problem: Just checking, what class would you give NLAGHILGCQGAQFVSSVPRCDLV [F5H] here?
Result: group B

Problem: Just checking, what class would you give NLAGFILGCIGAQFVSSVPRCDLV [Q10I] here?
Result: group B

Problem: Just checking, what class would you give NLAGFILGCQGAQFVSSVPRCVLV [D22V] here?
Result: group B

Problem: Just checking, what class would you give NLAGFILGCQGAAFVSSVPRCDLV [Q13A] here?
Result: group C

Problem: Just checking, what class would you give WLAGFILGCQGAQFVSSVPRCDLV [N1W] here?
Result: group C

Problem: Just checking, what class would you give NLAGFILGRQGAQFVSSVPRCDLV [C9R] here?
Result: group A

Problem: Just checking, what class would you give NLAGFINGCQGAQFVSSVPRCDLV [L7N] here?
Result: group B

Problem: Just checking, what class would you give NLAGFILGHQGAQFVSSVPRCDLV [C9H] here?
Result: group C

Problem: Just checking, what class would you give NLAGFILGCQGAQFVDSVPRCDLV [S16D] here?
Result: group A

Problem: Just checking, what class would you give NLAGFILGCQGAQFVSSVPRCFLV [D22F] here?
Result: group B

Problem: Just checking, what class would you give NLAGFILGCQGAQFVSSVPFCDLV [R20F] here?
Result: group B

Problem: Just checking, what class would you give NLAGFILGCQGAQFVSSVPRCDLQ [V24Q] here?
Result: group B

Problem: Just checking, what class would you give NLAPFILGCQGAQFVSSVPRCDLV [G4P] here?
Result: group C

Problem: Just checking, what class would you give NLAGFILGCQGAQFVSSVPRCDLC [V24C] here?
Result: group C

Problem: Just checking, what class would you give NLAGFPLGCQGAQFVSSVPRCDLV [I6P] here?
Result: group A

Problem: Just checking, what class would you give NLAGFILGCQGAQFVSDVPRCDLV [S17D] here?
Result: group A

Problem: Just checking, what class would you give NLAGFILGLQGAQFVSSVPRCDLV [C9L] here?
Result: group A

Problem: Just checking, what class would you give NLAGFILGCQGAQFVSSVPRCDRV [L23R] here?
Result: group A

Problem: Just checking, what class would you give NLAGFILGCQGAQFVSSVQRCDLV [P19Q] here?
Result: group B

Problem: Just checking, what class would you give NLAGFILGCQGAQFVSSVPRADLV [C21A] here?
Result: group B

Problem: Just checking, what class would you give NLAGFILGCHGAQFVSSVPRCDLV [Q10H] here?
Result: group B

Problem: Just checking, what class would you give NLAGFILGCQGWQFVSSVPRCDLV [A12W] here?
Result: group B

Problem: Just checking, what class would you give NLAGFILKCQGAQFVSSVPRCDLV [G8K] here?
Result: group C

Problem: Just checking, what class would you give NLAGFILGCQGAQWVSSVPRCDLV [F14W] here?
Result: group B
